Tested on: Aβ42
MEASUREMENT_DESCRIPTION: γ-secretase-modulating activity, Method 2: Aβ42 Alphalisa in supernatant of SKNBE2 cells carrying APP 695-wild type (Table 3b)
Assay type: cell-based
TEST_CONTEXT: overnight
READOUT_NAME: pIC50
Scale note: pIC50 = -log10(concentration in M).

Challenge: Fill blank: measured pIC50 of the compound COc1cc(-c2nc(Nc3ccc(C#N)cc3)n(C)n2)ccc1-n1cnc(C)c1 [Compound 225] is ____.
Response given: 5.84

Challenge: Fill blank: measured pIC50 of the compound CCC(C)n1nc(-c2ccc(-n3cnc(C)c3)c(OC)c2)nc1Nc1cc(C(F)(F)F)ccc1F (racemic) [Compound 179] is ____.
Response given: 7.72

Challenge: Fill blank: measured pIC50 of the compound COc1cc(-c2nc(NC3CCCC(C(F)(F)F)C3)n(C)n2)ccc1-n1cnc(C)c1 (stereo not shown) [Compound 95] is ____.
Response given: 6.04

Lab note: next compound to report on.
Challenge: Fill blank: measured pIC50 of the compound COc1cc(-c2nc(Nc3cc(C(C)(C)C)nn3C)n(C)n2)ccc1-n1cnc(C)c1 [Compound 244] is ____.
Response given: 7.08

---

Tested on: Aβ42
MEASUREMENT_DESCRIPTION: γ-secretase-modulating activity, Method 2: Aβ42 Alphalisa in supernatant of SKNBE2 cells carrying APP 695-wild type (Table 3b)
Format: cell-based
TEST_CONTEXT: overnight
Strictly below 200 nM in IC50: Criterion met. Otherwise: Criterion not met.

Here are 5 molecules together with their reported answers.
Challenge: Does COc1cc(-c2nc(N3CCCN(C(C)=O)CC3)n(C(C)C)n2)ccc1-n1cnc(C)c1 [Compound 301] have IC50 strictly under 200 nM?
Response given: Criterion not met

Challenge: Does COc1cc(-c2nc(Nc3ccc(Cl)cc3F)n(C)n2)ccc1-n1cnc(C)c1 [Compound 126] have IC50 strictly under 200 nM?
Response given: Criterion met

Challenge: Does COc1nc(-c2nc(Nc3cccc(Cl)c3)n(C)n2)ccc1-n1cnc(C)c1 [Compound 100] have IC50 strictly under 200 nM?
Response given: Criterion met

Challenge: Does COc1ccc(F)c(Nc2nc(-c3ccc(-n4cnc(C)c4)c(OC)c3)nn2C)c1 [Compound 195] have IC50 strictly under 200 nM?
Response given: Criterion met

Challenge: Does COc1cc(-c2nc(NC3CCCCC3)n(C)n2)ccc1-n1cnc(C)c1 [Compound 94] have IC50 strictly under 200 nM?
Response given: Criterion not met

Continuing:
Challenge: Does Cc1cn(-c2ccc(-c3nc(Nc4ccccc4C)n(C)n3)cc2OC(F)(F)F)cn1 [Compound 98] have IC50 strictly under 200 nM?
Response given: Criterion not met

Challenge: Does COc1cc(-c2nc3n(n2)CCOC3c2ccc(F)cc2C)ccc1-n1cnc(C)c1 (centres unmarked) [Compound 280] have IC50 strictly under 200 nM?
Response given: Criterion met

Challenge: Does COc1cc(-c2nc(Nc3ncccc3C(F)(F)F)n(C)n2)ccc1-n1cnc(C)c1 [Compound 240] have IC50 strictly under 200 nM?
Response given: Criterion not met

Challenge: Does COc1cc(-c2nc(Nc3ccc(C(F)(F)F)cc3F)n(C)n2)ccc1-n1cnc(C)c1 [Compound 134] have IC50 strictly under 200 nM?
Response given: Criterion met

Challenge: Does COc1cc(-c2nc(Nc3cccc(F)c3F)n(C)n2)ccc1-n1cnc(C)c1 [Compound 124] have IC50 strictly under 200 nM?
Response given: Criterion met

Challenge: Does COc1ccc(Nc2nc(-c3ccc(-n4cnc(C)c4)c(OC)c3)nn2C)c(F)c1 [Compound 197] have IC50 strictly under 200 nM?
Response given: Criterion met
